Where do these numbers come from? They come from ChEMBL document CHEMBL1155325.

target: Sodium-dependent dopamine transporter (Rattus norvegicus, UniProt P23977)
Sequence (P23977 whole entry): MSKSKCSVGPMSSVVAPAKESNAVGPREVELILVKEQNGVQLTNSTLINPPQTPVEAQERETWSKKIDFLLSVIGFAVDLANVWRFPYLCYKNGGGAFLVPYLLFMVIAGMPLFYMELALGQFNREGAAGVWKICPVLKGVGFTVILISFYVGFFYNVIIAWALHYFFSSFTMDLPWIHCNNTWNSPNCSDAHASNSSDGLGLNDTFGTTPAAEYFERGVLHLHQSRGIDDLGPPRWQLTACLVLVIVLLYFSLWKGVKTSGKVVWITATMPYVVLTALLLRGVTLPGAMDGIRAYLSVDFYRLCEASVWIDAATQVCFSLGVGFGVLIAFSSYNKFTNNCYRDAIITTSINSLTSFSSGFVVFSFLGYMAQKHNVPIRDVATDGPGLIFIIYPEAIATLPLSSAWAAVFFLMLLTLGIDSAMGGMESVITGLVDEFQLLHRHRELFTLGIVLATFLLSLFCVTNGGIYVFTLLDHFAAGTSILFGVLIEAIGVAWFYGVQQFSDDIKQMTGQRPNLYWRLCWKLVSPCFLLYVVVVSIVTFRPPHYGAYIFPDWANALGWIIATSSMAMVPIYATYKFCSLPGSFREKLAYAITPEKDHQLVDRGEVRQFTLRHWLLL
measuredAttribute: Ki (nM)

Ic1ccccc1O[C@@H](c1ccccc1)[C@H]1CNCCO1 :: 526

====

molecular target: Transporter (Rattus norvegicus)
Sequence (Q63380 whole entry): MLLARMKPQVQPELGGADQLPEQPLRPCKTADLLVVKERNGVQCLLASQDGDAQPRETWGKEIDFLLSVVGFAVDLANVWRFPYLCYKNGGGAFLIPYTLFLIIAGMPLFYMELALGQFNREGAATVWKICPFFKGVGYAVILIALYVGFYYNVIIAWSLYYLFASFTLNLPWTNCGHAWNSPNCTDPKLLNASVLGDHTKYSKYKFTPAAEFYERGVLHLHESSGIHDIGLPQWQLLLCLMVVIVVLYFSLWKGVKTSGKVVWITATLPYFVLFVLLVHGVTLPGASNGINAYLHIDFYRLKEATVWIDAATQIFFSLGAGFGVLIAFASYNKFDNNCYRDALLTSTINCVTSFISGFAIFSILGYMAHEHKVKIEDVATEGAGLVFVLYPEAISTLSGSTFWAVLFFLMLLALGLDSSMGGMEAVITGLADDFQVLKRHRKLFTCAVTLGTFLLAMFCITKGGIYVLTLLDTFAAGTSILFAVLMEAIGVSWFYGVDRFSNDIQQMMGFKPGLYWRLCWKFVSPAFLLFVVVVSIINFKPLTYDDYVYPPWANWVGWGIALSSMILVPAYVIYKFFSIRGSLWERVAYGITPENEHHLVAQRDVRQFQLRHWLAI
pKi: −log10 of the molar value.
measuredAttribute: pKi

CCOc1ccccc1O[C@@H](c1ccc(I)cc1)[C@H]1CNCCO1 :: 7.24

====

Attribute: pKi
molecular target: Sodium-dependent serotonin transporter (Rattus norvegicus, UniProt P31652)
Sequence (P31652 whole entry): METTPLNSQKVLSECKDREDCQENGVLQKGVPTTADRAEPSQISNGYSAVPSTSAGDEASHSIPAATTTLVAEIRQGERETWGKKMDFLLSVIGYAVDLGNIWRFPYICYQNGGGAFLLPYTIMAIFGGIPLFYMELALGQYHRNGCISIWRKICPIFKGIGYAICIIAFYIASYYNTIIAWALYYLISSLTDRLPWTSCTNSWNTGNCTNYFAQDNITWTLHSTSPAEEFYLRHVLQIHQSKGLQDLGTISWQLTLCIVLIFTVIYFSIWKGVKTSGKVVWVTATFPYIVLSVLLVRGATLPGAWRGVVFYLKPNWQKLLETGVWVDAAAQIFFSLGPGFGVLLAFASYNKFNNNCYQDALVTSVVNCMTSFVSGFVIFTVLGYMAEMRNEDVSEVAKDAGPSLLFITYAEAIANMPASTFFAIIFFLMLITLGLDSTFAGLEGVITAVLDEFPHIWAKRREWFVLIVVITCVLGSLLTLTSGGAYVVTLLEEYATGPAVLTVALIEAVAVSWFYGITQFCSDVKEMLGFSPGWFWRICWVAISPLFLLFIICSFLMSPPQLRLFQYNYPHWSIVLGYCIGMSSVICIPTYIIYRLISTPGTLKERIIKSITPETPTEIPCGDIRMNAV
pKi: −log10 of the molar value.
measuredAttribute: pKi

Ic1cccc(O[C@@H](c2ccccc2)[C@H]2CNCCO2)c1 :: 6.81
Ic1ccc(O[C@@H](c2ccccc2)[C@H]2CNCCO2)cc1 :: 7.46
